meta.source: the supplement of paper PMC11316812

- Tested on: hTERT-HMEC;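 also: secreted proteins added to cultured cells, EdU pulse at the end, nuclei found by Hoechst imaging, EdU status from nuclear versus surrounding ring intensity ratio, PBS as neutral control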
- PROTOCOL TEXT: percentage of EdU-negative (G0-arrested) nuclei per well, 72 h; higher = more G0 arrest
- CONDITION DESCRIPTION: protein concentration 0.225 µM; reference: sequence is the full UniProt precursor, the tested protein was the secreted form or ectodomain
# percentage of EdU-negative values compiled below

SEQUENCE INPUT	percentage of EdU-negative
MTLFPVLLFLVAGLLPSFPANEDKDPAFTALLTTQTQVQREIVNKHNELRRAVSPPARNMLKMEWNKEAAANAQKWANQCNYRHSNPKDRMTSLKCGENLYMSSASSSWSQAIQSWFDEYNDFDFGVGPKTPNAVVGHYTQVVWYSSYLVGCGNAYCPNQKVLKYYYVCQYCPAGNWANRLYVPYEQGAPCASCPDNCDDGLCTNGCKYEDLYSNCKSLKLTLTCKHQLVRDSCKASCNCSNSIY	4.83%

In: Return reported percentage of EdU-negative. Input sequence: MVNLAAMVWRRLLRKRWVLALVFGLSLVYFLSSTFKQEERAVRDRNLLQVHDHNQPIPWKVQFNLGNSSRPSNQCRNSIQGKHLITDELGYVCERKDLLVNGCCNVNVPSTKQYCCDGCWPNGCCSAYEYCVSCCLQPNKQLLLERFLNRAAVAFQNLFMAVEDHFELCLAKCRTSSQSVQHENTYRDPIAKYCYGESPPELFPA [Q9H741]
Out: 7.52%
